Target: Protein phosphatase methylesterase 1 (Homo sapiens) (UniProt Q9Y570)
Sequence (Q9Y570 whole entry, looked up): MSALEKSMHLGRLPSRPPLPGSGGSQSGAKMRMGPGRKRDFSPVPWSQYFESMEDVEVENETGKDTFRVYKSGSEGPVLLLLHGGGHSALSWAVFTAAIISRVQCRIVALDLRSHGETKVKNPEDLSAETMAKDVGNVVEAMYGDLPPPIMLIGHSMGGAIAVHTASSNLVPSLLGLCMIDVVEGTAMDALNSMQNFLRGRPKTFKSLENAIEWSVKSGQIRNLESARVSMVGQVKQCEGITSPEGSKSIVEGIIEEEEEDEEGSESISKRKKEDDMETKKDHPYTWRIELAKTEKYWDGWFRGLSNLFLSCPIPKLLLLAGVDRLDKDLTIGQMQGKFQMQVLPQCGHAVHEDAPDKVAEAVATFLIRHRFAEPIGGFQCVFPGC
Assay: PME-1 inhibitor activity retest, confirmation, biochemical, fluorescence polarization, FP-Rh probe, triplicate (AID 2171);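 further: 0% = enzyme with DMSO and 100% = wells lacking PME-1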
Conditions: recombinant PME-1, FP-Rh probe fluorescence polarization; at 5.9 µM; stronger effect = higher value
Please use Y whenever inhibition is not below 30%, and N whenever it is.

>>> assigned_class("O=C(c1ccc2c(c1)OCO2)N1CCCC(c2ccccc2)C1 (stereo unspecified)")
"N"
>>> assigned_class("CCOc1cc(CNc2ccc(O)cc2)ccc1OCc1ccc(Cl)cc1Cl")
"N"
>>> assigned_class("C=CCCC(=O)Nc1nc(C)c(-c2csc(Nc3ccc(Cl)cc3)n2)s1")
"Y"
>>> assigned_class("O=C1Nc2ccc(Br)cc2C12NNc1ccccc1O2 (stereo unspecified)")
"Y"
>>> assigned_class("CN(C)c1ccc(NC(=O)Nc2cccc(Cl)c2)cc1")
"N"
>>> assigned_class("c1ccc(-c2ccc(C3CCCN3)cc2)cc1 (stereo unspecified)")
"N"
>>> assigned_class("O=C(NNc1c2ccccc2nc2ccccc12)c1cccc(O)c1")
"Y"
>>> assigned_class("COc1ccc(/C=N/NC(=O)c2cc3c(OC)ccc(OC)c3[nH]2)cc1O")
"Y"
>>> assigned_class("COc1ccc(-c2oc(NC(=O)CCl)c(C#N)c2-c2ccc(OC)cc2)cc1")
"N"
>>> assigned_class("O=C(Nc1cccc(-c2csc(Nc3ccccc3)n2)c1)c1cc([N+](=O)[O-])cc(C(F)(F)F)c1")
"N"
>>> assigned_class("N#CC/C(N)=N/Nc1nc2ccccc2nc1Cc1ccccc1")
"N"
>>> assigned_class("O=C(O)c1ccc(N/N=C/c2ccc(OC(=O)c3cccc(Cl)c3)cc2)cc1")
"Y"
>>> assigned_class("CCN(CC)S(=O)(=O)c1ccc(C)c(NC(=O)COC(=O)c2ccc(C)c(S(=O)(=O)N3CCOCC3)c2)c1")
"Y"
>>> assigned_class("Cc1cc(Nc2ccc(O)cc2)ccc1N")
"N"
>>> assigned_class("Nc1nonc1N/N=C/c1c(O)ccc2ccccc12")
"N"
>>> assigned_class("COc1ccc(OC)c(-c2c3cc(O)c(=O)cc-3oc3cc(O)c(O)cc23)c1")
"Y"
>>> assigned_class("COc1ccc2c(Cl)c(C(=O)N/N=C/c3c(C)[nH]c4ccccc34)sc2c1")
"N"
>>> assigned_class("N[C@H](CSCc1ccccc1)C(=O)Nc1ccc([N+](=O)[O-])cc1")
"N"
>>> assigned_class("COc1ccc(CCn2c(N)c(C#N)c3nc4ccccc4nc32)cc1OC")
"N"
>>> assigned_class("COc1ccc(-c2c/c(=N\\c3nc(-c4ccccc4)c(C)s3)c3ccccc3o2)cc1O")
"N"
>>> assigned_class("CCNc1c2c3c(cccc3n(C)c1=O)C(=O)c1ccccc1-2")
"Y"
>>> assigned_class("Cc1ccc2[nH]c(C)c(/C=N/Nc3nc4ccccc4s3)c2c1")
"Y"
>>> assigned_class("O=[N+]([O-])c1ccccc1N/N=C/c1c[nH]c2ccccc12")
"Y"
>>> assigned_class("CCOc1cc(/C=C2\\N=C(SCC)SC2=O)cc([N+](=O)[O-])c1OC(C)=O")
"Y"
>>> assigned_class("CCN(CC)S(=O)(=O)c1ccc(N/N=C/c2ccc(O)cc2O)nc1")
"Y"
>>> assigned_class("CCCCCCCCCCCCCCCC[n+]1ccc(/C=N/O)cc1")
"Y"
>>> assigned_class("Nc1ccc(C(=O)N/N=C\\c2cc(N=Nc3cccc4ccccc34)ccc2O)cc1")
"N"
>>> assigned_class("COc1ccc(/C=C2\\Sc3ccc(C(=O)N4CCN(Cc5ccccc5)CC4)cc3N(C)C2=O)cc1OC")
"Y"
>>> assigned_class("COc1ccc(NC(=O)Nc2nnc(N3CCCCC3C)s2)cc1OC (stereo unspecified)")
"Y"
>>> assigned_class("CC(C)(C)n1nnnc1C(c1cccs1)N(Cc1cccnc1)Cc1ccco1 (stereo unspecified)")
"N"
>>> assigned_class("COc1cc(OC)cc(C(=O)Oc2ccc(/C=N/Nc3nc4ccccc4s3)cc2OC)c1")
"N"
>>> assigned_class("COc1cc(C(=O)Nc2c(C(=O)O)[nH]c3ccc(Br)cc23)cc(OC)c1OC")
"N"
>>> assigned_class("COC(=O)N1C(=O)[C@](c2ccc(OC)cc2)(C(C)C)N1C(=O)OC")
"Y"
>>> assigned_class("O=C1C=C(N2CCCCC2)c2ccccc2C1=O")
"Y"

---

Here, each record is paired with measured inhibition data.
Experiment: VP16 transactivation inhibitors, counter-screen for SRC1 inhibitor project, cell-based, luminescence, high throughput (AID 588824)
Conditions: cell-based VP16 transactivation luciferase luminescence; at 3.6 µM; stronger effect = higher value
parameter-measured: inhibition (%)

>>> result_value("C(=NNc1ccc2ccccc2n1)c1ccccn1")
-33.3
>>> result_value("Cc1ccc(N2CC(C(=O)N3CCC(C(=O)NCCCOC(C)C)CC3)CC2=O)cc1 (stereo unspecified)")
-8.26
>>> result_value("NC(=O)c1nsc(C(=O)N(c2ccccc2F)C(C(=O)NCc2ccc(F)cc2)c2ccc(O)cc2)c1N (stereo unspecified)")
-2.03
>>> result_value("CC(=O)NC(c1ccccc1)c1cc(Cl)c2cccnc2c1O (stereo unspecified)")
27
>>> result_value("CCN(CC(=O)Nc1c(F)cccc1F)C(=O)Cc1csc(-c2ccccc2)n1")
-7.28
>>> result_value("Cc1cc(NC(=O)Cc2ccccc2)c2ccccc2n1")
36.5
>>> result_value("COc1cc2c3c([nH]c2cc1F)C(=O)NCC3")
14.9
>>> result_value("COc1ccccc1CCC(=O)Nc1cccc(S(=O)(=O)N2CCCCCC2)c1")
-7.85
>>> result_value("COc1ccccc1-n1nnnc1SC(C)C(=O)NC1CCCC1 (stereo unspecified)")
-10.9
>>> result_value("O=C1C2C3C=CC(C3)C2C(=O)N1CN(Cc1ccccc1)CN1C(=O)C2C3C=CC(C3)C2C1=O (stereo unspecified)")
-14.3
>>> result_value("COc1ccc(C(=O)N/N=C/c2cc(Br)ccc2O)cc1OC")
42.5
>>> result_value("Nc1ccc(-c2nc3c(Cl)cc(N)cc3[nH]2)cc1")
-17.4
>>> result_value("CC1(C)CC(N2CCCC2)=CC(=[N+]2CCCCC2)C1")
31
>>> result_value("O=C(CSc1nnc(Cn2nnc3ccccc32)o1)N(Cc1ccc(F)cc1)c1ccccc1")
38.8
>>> result_value("Cc1sc(NC(=O)/C=C/c2ccc3c(c2)OCO3)nc1-c1ccccc1")
57.7
>>> result_value("Cc1nc2ccccc2c(N)c1C(=O)/C=C/c1ccccc1")
31.6
>>> result_value("CCCCCCCC[n+]1c(C)n(-c2ccccc2)c2ccc(NC(C)=O)cc21")
19.2
>>> result_value("COc1cccc(NC(=O)CN(C)CC(=O)Nc2ccc(C)c([N+](=O)[O-])c2)c1")
27.2
>>> result_value("CN(C(=O)COC(=O)c1ccc2[nH]c3c(c2c1)CCCC3)C1CCS(=O)(=O)C1 (stereo unspecified)")
-0.75
>>> result_value("COc1cc(/C=C2\\SC(N)=NC2=O)cc(OC)c1")
18.9
>>> result_value("CCN(CC)CCn1nc2c3c(cccc3c1=O)-c1ccccc1-2")
54.7
>>> result_value("CC1CCc2c(sc3ncnc(N4CCOCC4)c23)C1 (stereo unspecified)")
26.6
>>> result_value("Cc1c(C(=O)NCC2COc3ccccc3O2)oc2ccc(S(=O)(=O)N3CCOCC3)cc12 (stereo unspecified)")
15.8
>>> result_value("O=C(COc1ccc([N+](=O)[O-])cc1)Nc1ccccc1C(=O)NC1CC1")
-1.57
>>> result_value("COc1cccc(C2=CC(=O)CC(C)(C)C2)c1")
14.3
>>> result_value("O=C(Nc1ccc(Cc2ccncc2)cc1)c1ccc(S(=O)(=O)N2CCOCC2)cc1")
9.65
>>> result_value("CC(O)(c1ccccc1)c1nc(-c2cccc(C#N)c2)cs1 (stereo unspecified)")
-4.39
>>> result_value("CC(C)(CNC(=O)c1ccc(-c2cccc(C(F)(F)F)c2)o1)N1CCOCC1")
-0.96
>>> result_value("Cc1ccc(O)c(N=Nc2nccs2)c1")
55.5
>>> result_value("CCCNC(=O)c1nnsc1S(=O)(=O)c1ccc(Cl)cc1")
5.6
>>> result_value("C[C@@H](C(=O)Nc1ccc2c(c1)OCCO2)n1c(=O)[nH]c2ccccc2c1=O")
-17.6

---

Assay: VP16 transactivation reporter inhibitors, counter-screen for LRH-1 inverse agonist project, cell-based, luminescence, high throughput (AID 651615)
Conditions: Gal4-VP16 luciferase reporter cells, at 3.6 µM, stronger effect = higher value
parameter-measured: inhibition (%)

>>> result_value("CC(=O)Nc1cccc(-c2cc(NC=O)c3ncc(-c4cccc(C(C)=O)c4)n3c2)c1")
-34.5
>>> result_value("Cc1nn(Cc2ccc(Cl)cc2)c(C)c1NC(=O)c1cc(C(C)C)on1")
16
>>> result_value("CCCCCCCCN1C(=O)[C@H](CC(=O)NCC23CC4CC(CC(C4)C2)C3)C[C@@]2(C(=O)OCC)CCCC=C12")
14.6
>>> result_value("CCOC(=O)c1ccc(N=Cc2cnc(N)nc2N)cc1")
3.32
>>> result_value("O=C(Nc1ccc(N2CCN(C(=O)c3ccc(Cl)cc3)CC2)cc1)c1ccc([N+](=O)[O-])o1")
1.04
>>> result_value("Cc1ccccc1OCC(=O)N/N=C/c1ccc([N+](=O)[O-])o1")
9.63
>>> result_value("CCN(CC)S(=O)(=O)c1cccc(NC(=O)CNc2cccc(S(=O)(=O)N3CCCC3)c2)c1")
49.5
>>> result_value("CCC1(O)C(=O)OCc2c1cc1n(c2=O)Cc2cc3c(N)cccc3nc2-1 (stereo not given)")
79.6
>>> result_value("O=C(Cc1cccs1)N/N=C\\c1ccc([N+](=O)[O-])s1")
12.6
>>> result_value("N#CCc1ccc(OCCCN2CCC(C(O)(c3ccccc3)c3ccccc3)CC2)cc1")
12.4
>>> result_value("CCC(NC(=O)c1cc(COc2cc(C)c(Cl)c(C)c2)on1)c1ccncc1 (stereo not given)")
8.52
>>> result_value("Oc1ccc2ccccc2c1C=NCc1ccccc1")
3.34
>>> result_value("CCOC(=O)C1CCN(Cc2cc(Cl)c3ccccc3c2O)CC1")
2.83
>>> result_value("C/C(CC(C)(C)C1CCCCC1)=N\\NC(N)=S")
68.6
>>> result_value("CCOC(=O)c1cccc(C2=CC(=O)CC(C)(C)C2)c1")
-12

From: PubChem BioAssay
